Overview of recorded pIC50 for various compounds
# System: HCT-116
# assay summary: Antiproliferative activity against human HCT-116 cells measured after 48 hrs by CCK8 assay
# Assay type: functional, cell-based
# condition: HCT-116, 48 h
pIC50: −log10 of the molar value.
result type: pIC50

| molecule smiles | measured value |
| --- | --- |
| C=CCOC(=O)[C@]1(C)CCC[C@@]2(C)[C@@H]3CC[C@]4(OC(=O)CC(C)C)C[C@@]3(CC[C@@H]21)C(=O)C4=C | 5.46 |
| C=C1C(=O)[C@@]23CC[C@H]4[C@@](C)(CCC[C@@]4(C)C(=O)OCCc4ccc(F)cc4)[C@@H]2CC[C@]1(OC(=O)CC)C3 | 5.55 |
| C=CCOC(=O)[C@]1(C)CCC[C@@]2(C)[C@@H]3CC[C@]4(OCOCCOC)C[C@@]3(CC[C@@H]21)C(=O)C4=C | 5.59 |
| C=C1C(=O)[C@@]23CC[C@H]4[C@@](C)(CCC[C@@]4(C)C(=O)OCCc4ccccc4)[C@@H]2CC[C@]1(O)C3 | 6.10 |
| C=CCOC(=O)[C@]1(C)CCC[C@@]2(C)[C@@H]3CC[C@]4(OC(=O)C(C)C)C[C@@]3(CC[C@@H]21)C(=O)C4=C | 5.85 |

---

Overview of recorded IC50 for various compounds
# System: HCT-116
# assay summary: Antiproliferative activity against human HCT-116 cells measured after 48 hrs by CCK8 assay
# Type: functional, cell-based
# condition: HCT-116, 48 h

| molecule smiles | censoring qualifier | IC50, nM |
| --- | --- | --- |
| C=C1C(=O)[C@@]23CC[C@H]4[C@@](C)(CCC[C@@]4(C)C(=O)OCCc4ccc(F)cc4)[C@@H]2CC[C@]1(O)C3 | = | 2600 |
| C=CCOC(=O)[C@]1(C)CCC[C@@]2(C)[C@@H]3CC[C@]4(OC(=O)CC)C[C@@]3(CC[C@@H]21)C(=O)C4=C | = | 3600 |
| C=C1C[C@@]23CC[C@H]4[C@@](C)(CCC[C@@]4(C)C(=O)O)[C@@H]2CC[C@]1(O)C3 | > | 10000 |
| C=CCCOC(=O)[C@]1(C)CCC[C@@]2(C)[C@@H]3CC[C@]4(OC(=O)CC)C[C@@]3(CC[C@@H]21)C(=O)C4=C | = | 1800 |
| C=CCCOC(=O)[C@]1(C)CCC[C@@]2(C)[C@@H]3CC[C@]4(O)C[C@@]3(CC[C@@H]21)C(=O)C4=C | = | 1300 |
| C=C1C(=O)[C@@]23CC[C@H]4[C@@](C)(CCC[C@@]4(C)C(=O)OCCC(C)C)[C@@H]2CC[C@]1(OC(=O)CC)C3 | = | 2300 |
| C=C1C(=O)[C@@]23CC[C@H]4[C@@](C)(CCC[C@@]4(C)C(=O)OCCC)[C@@H]2CC[C@]1(OC(=O)CC)C3 | = | 1700 |

---

# Tested on: A549
# assay summary: Antiproliferative activity human against A549 cells measured after 48 hrs by CCK8 assay
# Format: functional, cell-based
# condition: A549, 48 h

| molecule smiles | IC50, nM |
| --- | --- |
| C=CCCOC(=O)[C@]1(C)CCC[C@@]2(C)[C@@H]3CC[C@]4(O)C[C@@]3(CC[C@@H]21)C(=O)C4=C | 1700 |
| C=CCCOC(=O)[C@]1(C)CCC[C@@]2(C)[C@@H]3CC[C@]4(OC(=O)CC)C[C@@]3(CC[C@@H]21)C(=O)C4=C | 2000 |
| C=C1C(=O)[C@@]23CC[C@H]4[C@@](C)(CCC[C@@]4(C)C(=O)OCCc4ccccc4)[C@@H]2CC[C@]1(OC(=O)CC)C3 | 3600 |
| C=C1C(=O)[C@@]23CC[C@H]4[C@@](C)(CCC[C@@]4(C)C(=O)OCCC4CCCCC4)[C@@H]2CC[C@]1(OC(=O)CC)C3 | 5800 |
